- Test system: SW-620
- PROTOCOL SUMMARY: NCI tumour cell line growth inhibition, 48 h
Active and inactive are the calls of the source. Cut-off read from the data, not from the text of the source: active = GI50 up to about 1.1 µM and inactive = higher.
Listing: GI50 of selected compounds

Take a look at these entries with their results.
# COMPOUND, GI50
records = [
    ("O=C1/C(=C\\c2ccco2)Oc2ccccc21", "> 100 µM (inactive)"),
    ("Oc1ccccc1C(c1cc2c(cc1O)OCO2)N1CCOCC1 (configuration not stated)", "23 µM (inactive)"),
    ("C=C1C(=O)C23CC1CCC2C12CO[C@H](O)[C@H]1C(C)(C)[C@H](OC(C)=O)C[C@H]2OC3=O (some centres not stated)", "14.3 µM (inactive)"),
]

[ask] Which GI50 value belongs to CCNc1ncnc2c1nnn2CC ?
[reply] > 100 µM (inactive)
